TARGET_SYSTEM: Torsin-1A-interacting protein 2 (Homo sapiens) (UniProt Q8NFQ8)
Sequence (Q8NFQ8 whole entry, looked up): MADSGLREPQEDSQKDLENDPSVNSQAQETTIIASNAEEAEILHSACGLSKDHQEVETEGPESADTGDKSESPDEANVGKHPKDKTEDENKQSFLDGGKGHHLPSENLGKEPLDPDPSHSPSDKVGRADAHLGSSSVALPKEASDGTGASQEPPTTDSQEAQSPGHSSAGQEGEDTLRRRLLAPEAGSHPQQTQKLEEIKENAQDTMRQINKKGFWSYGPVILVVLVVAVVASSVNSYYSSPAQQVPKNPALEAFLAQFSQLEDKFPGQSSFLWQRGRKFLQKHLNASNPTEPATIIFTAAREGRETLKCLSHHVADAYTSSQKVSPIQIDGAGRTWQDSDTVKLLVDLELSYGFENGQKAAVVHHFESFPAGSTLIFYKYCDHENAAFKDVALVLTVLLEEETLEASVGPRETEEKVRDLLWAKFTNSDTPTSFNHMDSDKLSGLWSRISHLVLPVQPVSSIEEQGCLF
TEST_METHOD_NOTES: LULL1 binders on small-molecule microarray, primary screen, cell lysate, human LULL1 lysate, 635/667 nm fluorescence (AID 1092);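 further: probe is lysate of COS7 cells overexpressing human LULL1; score merges per-feature 667 nm fluorescence with signal-to-noise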
CONDITIONS_USED: hLULL1 lysate binding, 635 nm fluorescence, higher = more signal
QUANTITY_KIND: composite z-score

CCOC(=O)C1=CC[C@@H](c2ccccc2)N(S(=O)(=O)c2ccc(C)cc2)[C@H]1C=Cc1ccccc1    2.32
COc1ccc(C#Cc2ccc3c(c2)[C@]2(C(=O)N3)[C@H](c3ccc(OCCO)cc3)N3[C@H](c4ccccc4)[C@H](c4ccccc4)OC(=O)[C@H]3[C@@H]2C(=O)N2CCc3cc(OC)c(OC)cc3C2)cc1    2.81
CCc1cccc(NC(=O)O[C@H]2[C@H](OC(=O)Nc3ccccc3)[C@H](OC(=O)Nc3ccccc3)[C@@H](OC)O[C@@H]2CO)c1    3.48
C[C@]1(C(=O)NCCN2CCOCC2)c2ccccc2C(=O)N(Cc2cc(F)cc(C(F)(F)F)c2)[C@H]1c1ccc(CO)cc1    3.36
[N-]=[N+]=NCc1ccccc1[C@@H]1OC(c2ccc(OCCCO)cc2)=N[C@]1(Cc1ccccc1N=[N+]=[N-])C(=O)NCCN1CCOCC1    3.26
CO[C@H]1O[C@H](CO)[C@@H](OC(=O)CCc2ccccc2)[C@H](OC(=O)c2cc3ccccc3[nH]2)[C@H]1OC(=O)c1cc2ccccc2[nH]1    2.74
NC(=O)N1C(=O)C2C(C1=O)C1C=C(CCCO)C2C(C2CC2)N1Cc1cccc(OC(F)(F)F)c1 (stereo not drawn)    2.63
C=CCC(OC(C)=O)[C@@H]1[C@@H](N(Cc2ccc(-c3cccc(C(F)(F)F)c3)o2)C(=O)c2cccc3ccccc23)c2cc(OCCCO)ccc2N1C(=O)Cc1ccc(OC)cc1 (stereo partly drawn)    0.648
C=C(/C(=C/C[C@@H](OC(C)=O)c1ccc(CO)o1)c1cc(C(=O)OC)ccc1OC)C(C)C    1.86
COC(=O)C(CC#Cc1ccc2c(c1)[C@]1(C(=O)N2)[C@H](c2ccc(O)cc2)N2[C@H](c3ccccc3)[C@H](c3ccccc3)OC(=O)[C@H]2[C@@H]1C(=O)N1CCCCCCC1)C(=O)OC    4.02
COC(=O)[C@@]1(Cc2ccc(OC)cc2)[C@H]2c3cc(C(=O)N4CCCC4)n(Cc4cc(C)n(C)n4)c3C[C@H]2CN1C(=O)c1ccccc1    3.85
O=C(CS)NCCCCCNC(=O)[C@@H]1C[C@@H]2C(=O)N[C@@H](Cc3ccccc3)C(=O)N2[C@@H]1c1cccc(OCCO)c1    3.04
COc1ccc([Si](C)(C)[C@@H]2[C@@H](CC(=O)N3Cc4ccccc4C[C@H]3CO)O[C@]3(C(=O)N(c4ccccc4)c4ccccc43)[C@H]2C)cc1    1.88

----------
Test system: Sonic hedgehog protein (Shh)
TEST_METHOD_NOTES: small-molecule binders of Shh protein, primary screen, biochemical, small-molecule microarray, 635/667 nm fluorescence (AID 1151);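 further: Shh protein binding to compounds spotted on small-molecule microarray slides; score combines spot fluorescence intensity with signal-to-noise across triplicate slides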
CONDITIONS_USED: small-molecule microarray binding, 635 nm fluorescence; higher = more signal
QUANTITY_KIND: composite z-score

COCCOC(=O)N1C(=O)[C@@]2(c3ccccc31)[C@H](c1ccccc1OCCO)N1[C@H](c3ccccc3)[C@H](c3ccccc3)OC(=O)[C@H]1[C@@H]2C(=O)N1CCCCCCC1    1.77
CO[C@H]1O[C@H](CO)[C@@H](OC(=O)Nc2cccc(F)c2)[C@H](OC(=O)Nc2ccccc2-c2ccccc2)[C@H]1OC(=O)Nc1ccccc1-c1ccccc1    1.23
C#C[C@@H](CC)O[Si](C#CCCCC#N)(C(C)C)C(C)C    0.473
COCCCNC(=O)[C@@]1(c2ccc([N+](=O)[O-])cc2)CC(=O)N(CC23CC4CC(CC(C4)C2)C3)[C@@H]1c1ccc(CO)cc1I    0.636
[N-]=[N+]=NCc1ccccc1[C@H]1OC(c2ccc(OCCCO)cc2)=N[C@@]1(Cc1ccccc1)C(=O)NCCN1CCOCC1    0.502
CCCCNC(=O)c1ccc(C#C[Si](C(C)C)(C(C)C)C(C)C)c(OC(C)=O)c1    1.74
COc1cc(NN2C(C(O)c3cc(OC)c(OC)c(OC)c3)C=CC3C(=O)N(c4ccccc4)C(=O)C32)cc(OC)c1OC (configuration not stated)    -0.317

----------
TEST_METHOD_NOTES: small-molecule microarray binders of probe aCHRDL2, primary screen, biochemical, biotinylated probe, 635/667 nm fluorescence (AID 1100)
CONDITIONS_USED: higher = more signal
Examples of molecules with documented composite z-score follow.
QUANTITY_KIND: composite z-score

COC(=O)[C@@]1(Cc2ccc(F)cc2)[C@H]2c3cc(C(=O)N4CCCC4)n(CC4CC4)c3C[C@H]2CN1C(=O)c1ccccc1    1.3
COCCOC(=O)N1C(=O)[C@@]2(c3cc(C#CCCO)ccc31)[C@H](C(=O)N1CCCCCCC1)[C@H]1C(=O)O[C@H](c3ccccc3)[C@H](c3ccccc3)N1[C@@H]2c1ccccc1OCCO    1.6
C=C(COC)C(=O)CC[C@H](OC(=O)c1cccnc1)c1ccc(CO)o1    -0.686
CCc1cccc(NC(=O)O[C@H]2[C@H](OC(=O)Nc3ccccc3)[C@H](OC(=O)Nc3ccccc3)[C@@H](OC)O[C@@H]2CO)c1    0.55
O=C1[C@@H]2[C@@H](CC(COc3ccccc3)=C3[C@@H](CCc4ccccc4)OB(O)C[C@@H]32)C(=O)N1Cc1ccccc1    -0.23
CC(C)CNC(=O)[C@@]1(C)c2ccccc2C(=O)N(Cc2cc(C(F)(F)F)cc(C(F)(F)F)c2)[C@H]1c1ccc(CO)cc1    0.587
CN1C=C(C(=O)OCCS(C)(=O)=O)C(C(=O)OCCS(C)(=O)=O)=CC(c2ccc(CO)cc2)=CC1c1cccs1 (centres undefined)    0.102
CC(=O)N1CC(C(O)C2C=CC3C(=O)NC(=O)C3N2Nc2ccc(Cl)cc2Cl)c2ccccc21 (centres undefined)    1.07
COc1ccc(C(O)C2C=CC3C(=O)N(c4ccccc4)C(=O)C3N2Nc2ccccc2)cc1 (centres undefined)    0.637
[N-]=[N+]=NCc1ccccc1[C@@H]1OC(c2ccc(OCCCO)cc2)=N[C@]1(Cc1ccccc1)C(=O)NCCN1CCOCC1    0.58
C=CCOC(=O)[C@H]1[C@@H]2C(=O)O[C@@H](c3ccccc3)[C@@H](c3ccccc3)N2[C@@H](c2ccc(OCCOC(=O)[C@H]3C[C@H]4C(=O)N[C@@H](CCCCNC(C)=O)C(=O)N4[C@H]3c3cccc(OCCO)c3)cc2)[C@]12C(=O)Nc1ccc(I)cc12    -0.887
CCOC(=O)C1=CC[C@@H](c2ccccc2)N(S(=O)(=O)c2ccc(C)cc2)[C@H]1C=Cc1ccccc1    1.03
C=C(COC)/C(=C/C[C@@H](OC(=O)c1ccncc1)c1ccccc1OCCO)c1cc(C(=O)OC)ccc1OC    0.445
COc1ccc(C(=O)Nc2cccc(CN3C(=O)[C@@]4(O[C@@H](CC(=O)N(CCO)Cc5ccccc5)[C@H]([Si](C)(C)c5ccc(OC)cc5)[C@H]4C)c4ccccc43)c2)cc1    -0.0709

----------
TARGET_SYSTEM: Focal adhesion kinase 1 (Homo sapiens) (UniProt Q05397)
Sequence (Q05397 whole entry, looked up): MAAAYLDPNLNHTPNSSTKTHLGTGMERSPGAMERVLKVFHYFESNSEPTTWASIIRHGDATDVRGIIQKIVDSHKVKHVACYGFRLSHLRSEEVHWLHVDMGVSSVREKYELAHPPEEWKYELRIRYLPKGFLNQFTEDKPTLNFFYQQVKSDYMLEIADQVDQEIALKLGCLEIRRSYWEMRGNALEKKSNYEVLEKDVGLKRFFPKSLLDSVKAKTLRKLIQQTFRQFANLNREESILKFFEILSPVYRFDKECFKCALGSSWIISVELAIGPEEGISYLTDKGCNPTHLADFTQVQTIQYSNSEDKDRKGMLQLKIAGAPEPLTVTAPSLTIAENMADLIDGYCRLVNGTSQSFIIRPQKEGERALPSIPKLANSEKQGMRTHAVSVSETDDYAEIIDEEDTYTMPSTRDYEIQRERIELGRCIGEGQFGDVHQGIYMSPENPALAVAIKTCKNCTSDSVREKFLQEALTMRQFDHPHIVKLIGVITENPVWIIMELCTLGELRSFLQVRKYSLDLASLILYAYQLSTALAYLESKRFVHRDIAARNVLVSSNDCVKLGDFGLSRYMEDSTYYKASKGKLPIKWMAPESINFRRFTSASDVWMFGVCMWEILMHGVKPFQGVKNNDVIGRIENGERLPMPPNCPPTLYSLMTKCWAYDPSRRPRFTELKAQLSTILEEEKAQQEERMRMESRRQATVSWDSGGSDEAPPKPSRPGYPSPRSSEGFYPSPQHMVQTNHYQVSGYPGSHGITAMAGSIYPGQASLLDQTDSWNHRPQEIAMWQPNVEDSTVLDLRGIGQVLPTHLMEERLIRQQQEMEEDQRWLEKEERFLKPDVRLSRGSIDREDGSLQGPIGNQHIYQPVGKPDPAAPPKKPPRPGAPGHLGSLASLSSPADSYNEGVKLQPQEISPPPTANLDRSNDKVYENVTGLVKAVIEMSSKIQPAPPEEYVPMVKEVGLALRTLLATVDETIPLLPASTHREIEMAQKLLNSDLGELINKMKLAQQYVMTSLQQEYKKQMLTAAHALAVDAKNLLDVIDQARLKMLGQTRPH
TEST_METHOD_NOTES: small-molecule microarray binders of FAK, primary screen, biochemical, 635/667 nm fluorescence, BSA, DTT (AID 1130);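 further: composite of spot emission at 667 nm and signal to noise over triplicate slides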
CONDITIONS_USED: PTK2 binding, 635 nm fluorescence, higher = more signal
Examples of compounds with documented composite z-score follow.
QUANTITY_KIND: composite z-score

COc1ccc(C#Cc2ccc3c(c2)[C@]2(C(=O)N3)[C@H](c3ccc(OCCO)cc3)N3[C@H](c4ccccc4)[C@H](c4ccccc4)OC(=O)[C@H]3[C@@H]2C(=O)N2CCc3cc(OC)c(OC)cc3C2)cc1    0.946
C=C(CCCC)C(=O)CC[C@H](OC(C)=O)c1ccc(OCCO)cc1    0.0145
C=CCNC(=O)[C@H]1[C@@H]2C(=O)O[C@@H](c3ccccc3)[C@@H](c3ccccc3)N2[C@@H](c2ccc(OCCO)cc2)[C@]12C(=O)Nc1ccc(C#CCNC(N)=O)cc12    0.0494

----------
Examples of molecules with documented composite z-score follow.
TARGET_SYSTEM: Torsin-1A-interacting protein 1 (Homo sapiens) (UniProt Q5JTV8)
Sequence (Q5JTV8 whole entry, looked up): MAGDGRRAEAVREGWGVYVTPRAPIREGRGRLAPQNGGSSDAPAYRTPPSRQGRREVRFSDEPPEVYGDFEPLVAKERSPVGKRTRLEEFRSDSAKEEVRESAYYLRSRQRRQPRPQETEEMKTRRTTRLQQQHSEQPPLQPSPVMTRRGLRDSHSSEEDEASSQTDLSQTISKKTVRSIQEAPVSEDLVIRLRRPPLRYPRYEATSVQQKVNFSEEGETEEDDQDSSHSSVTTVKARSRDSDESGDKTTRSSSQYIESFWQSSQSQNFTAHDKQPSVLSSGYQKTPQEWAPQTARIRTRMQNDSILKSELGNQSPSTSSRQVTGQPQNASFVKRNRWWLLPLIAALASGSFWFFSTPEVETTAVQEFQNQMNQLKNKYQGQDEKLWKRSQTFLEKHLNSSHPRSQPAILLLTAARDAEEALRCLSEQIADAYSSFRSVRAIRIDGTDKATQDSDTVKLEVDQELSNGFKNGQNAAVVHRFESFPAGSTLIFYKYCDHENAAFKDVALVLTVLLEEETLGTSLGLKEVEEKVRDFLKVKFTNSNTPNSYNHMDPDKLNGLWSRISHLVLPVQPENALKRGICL
TEST_METHOD_NOTES: LAP1 binders from COS7 cell lysate, primary screen, small-molecule microarray, 635/667 nm fluorescence (AID 1116)
CONDITIONS_USED: COS7-hLAP1 lysate binding, 635 nm fluorescence, higher = more signal
QUANTITY_KIND: composite z-score

COCCOC(=O)N1C(=O)[C@@]2(c3cc(C#Cc4ccc(OC)cc4)ccc31)[C@H](C(=O)NC[C@H](O)c1ccccc1)[C@H]1C(=O)O[C@H](c3ccccc3)[C@H](c3ccccc3)N1[C@@H]2c1ccc(OCCO)cc1    1.14
CCCNC(=O)[C@@]1(Sc2ccc(C)cc2)CC(=O)N(C2CCCCC2)[C@@H]1c1ccc(CO)cc1I    0.982
COCCOC(=O)N1C(=O)[C@@]2(c3cc(C#CCNC(N)=O)ccc31)[C@H](c1ccc(O)cc1)N1[C@H](c3ccccc3)[C@H](c3ccccc3)OC(=O)[C@H]1[C@@H]2C(N)=O    -0.448
CN1C=C(C(=O)OCCS(C)(=O)=O)C(C(=O)OCCS(C)(=O)=O)=CC(c2ccc(CO)cc2)=CC1c1cccs1 (centres undefined)    1.46
COCCOC(=O)N1C(=O)[C@@]2(c3cc(C#CCC(C(=O)OC)C(=O)OC)ccc31)[C@H](c1ccc(OCCO)cc1)N1[C@H](c3ccccc3)[C@H](c3ccccc3)OC(=O)[C@H]1[C@@H]2C(=O)Nc1nc2ccccc2s1    0.743
[N-]=[N+]=NC[C@H](Cc1ccccc1)NC(=O)c1ccccc1    0.363
COCCOC(=O)N1C(=O)[C@@]2(c3cc(C#CCC(C(=O)OC)C(=O)OC)ccc31)[C@H](C(=O)NC[C@H](O)c1ccccc1)[C@H]1C(=O)O[C@H](c3ccccc3)[C@H](c3ccccc3)N1[C@@H]2c1ccc(OCCO)cc1    0.314
CCOC(=O)C1=CCN(S(=O)(=O)c2ccc(C)cc2)C1c1ccccc1 (centres undefined)    0.553
COCC(=C=CC[C@@H](O)c1cccc(OCCO)c1)CCO    0.69
COC(=O)c1c2oc(c1C(=O)OC)C(=O)N1CCC[C@H]1Cn1nncc1CN(Cc1ccccc1)C(=O)N[C@H](CO)CC2    -0.285
NC(=O)N1C(=O)C2C(C1=O)C1C=C(CCCO)C2C(C2CC2)N1Cc1cccc(OC(F)(F)F)c1 (centres undefined)    0.691
O=C1O[C@H](c2ccccc2)[C@H](c2ccccc2)N2[C@H]1[C@@H](C(=O)O)[C@]1(C(=O)Nc3ccc(C#CC4(O)CCCCCC4)cc31)[C@H]2c1ccc(O)cc1    -0.0781
C=C(COC)C(=O)CC[C@H](OC(=O)c1cccnc1)c1ccc(CO)o1    0.659
[N-]=[N+]=Nc1ccccc1C[C@@]1(C(=O)O)N=C(c2ccc(OCCCO)cc2)O[C@@H]1c1ccccc1N=[N+]=[N-]    1.79
